Test system: C. pneumoniae
protocolText: Direct anti-chlamydial effect of compounds and mixtures on C. pneumoniae (Example 5)
Type: cell-based
testConditions: Chlamydia pneumoniae; 50 μM; read-out: Inhibition %
Experimental: Direct Anti-Chlamydial Effect of Plant-Derived Phenolic Compounds, Certain Synthetic Compounds and Mixtures on C. pneumoniae The concentration used was 50 μM. The cultivated HL cells are infected with C. pneumoniae EB's. […] On the day preceding the infection the host cells are inoculated on a 24-well plate: the cells are harvested by trypsinisation, they are suspended in ca. 5 ml of the nutrition liquid and counted in a Burker's chamber. […]
endpoint: inhibition at 50 µM (%)
The reply should be a number in %, with the unit left off.

Suppose we examine the molecule Cc1ccc2oc(=O)ccc2c1 ; what inhibition at 50 µM value has been reported?
71

Suppose we examine the molecule O=c1ccc2ccc(O)cc2o1 ; what inhibition at 50 µM value has been reported?
75

Suppose we examine the molecule COc1ccc2oc(-c3ccccc3OC)cc(=O)c2c1 ; what inhibition at 50 µM value has been reported?
73

Suppose we examine the molecule O=c1cc(-c2ccc(O)cc2)oc2cc(O)cc(O)c12 ; what inhibition at 50 µM value has been reported?
100

Suppose we examine the molecule CCCCCCCCCCCCOC(=O)c1cc(O)c(O)c(O)c1 [Dodecyl gallate] ; what inhibition at 50 µM value has been reported?
100

Suppose we examine the molecule CCCOC(=O)c1cc(O)c(O)c(O)c1 [Propyl Gallate] ; what inhibition at 50 µM value has been reported?
100

Suppose we examine the molecule O=c1cc(-c2ccc(O)c(O)c2)oc2cc(O)cc(O)c12 ; what inhibition at 50 µM value has been reported?
100

Suppose we examine the molecule COc1cc(C(=O)O)cc(OC)c1O ; what inhibition at 50 µM value has been reported?
32

Suppose we examine the molecule O=c1c(O)c(-c2ccc(O)c(O)c2)oc2cc(O)cc(O)c12 ; what inhibition at 50 µM value has been reported?
90

Suppose we examine the molecule COc1cc2ccc(=O)oc2cc1O ; what inhibition at 50 µM value has been reported?
96

Suppose we examine the molecule O=C(O)c1cc(O)c(O)c(O)c1 ; what inhibition at 50 µM value has been reported?
27

* * *

Answer each item with its documented Toxicity test HL-C (pre-treated).
Test system: HL cells
protocolText: Toxicity towards the host cells, Trypan blue staining, no infection
Format: cell-based, human
testConditions: 50 μM, pre-treated
The reply should be a number in %, with the unit left off.

Suppose we examine the molecule COc1cc(O)c2c(=O)c(O)c(-c3ccc(O)c(O)c3)oc2c1 ; what Toxicity test HL-C (pre-treated) value has been reported?
16.9

Suppose we examine the molecule O=c1c(O)c(-c2ccc(O)cc2O)oc2cc(O)cc(O)c12 ; what Toxicity test HL-C (pre-treated) value has been reported?
9.7

Suppose we examine the molecule CCCCCCCCOC(=O)c1cc(O)c(O)c(O)c1 [Octyl gallate] ; what Toxicity test HL-C (pre-treated) value has been reported?
14.8

Suppose we examine the molecule O=c1c(O)c(-c2ccc(O)c(O)c2)oc2cc(O)cc(O)c12 ; what Toxicity test HL-C (pre-treated) value has been reported?
10.5

* * *

System: HL cells
protocolText: Toxicity towards the host cells, Trypan blue staining, no infection
Format: cell-based, human
testConditions: 50 μM
Answer each item with its documented Toxicity test HL-C.
The reply should be a number in %, with the unit left off.

Suppose we examine the molecule COc1cc(O)c2c(=O)c(O)c(-c3ccc(O)c(O)c3)oc2c1 [Rhamnetin] ; what Toxicity test HL-C value has been reported?
15.7

Suppose we examine the molecule O=c1c(O)c(-c2ccc(O)c(O)c2)oc2cc(O)cc(O)c12 [Quercetin] ; what Toxicity test HL-C value has been reported?
10.5

Suppose we examine the molecule O=c1c(O)c(-c2ccc(O)cc2O)oc2cc(O)cc(O)c12 [Morin] ; what Toxicity test HL-C value has been reported?
11.2

Suppose we examine the molecule CCCCCCCCOC(=O)c1cc(O)c(O)c(O)c1 [Octyl gallate] ; what Toxicity test HL-C value has been reported?
16.4

* * *

protocolText: Antioxidant effect, IC50 against DPPH
Type: biochemical
testConditions: read-out: IC50 [moles L^−1] against DPPH′
endpoint: pIC50
pIC50 is a log-scale quantity: -log10 of the concentration expressed in molar.

Suppose we examine the compound O=C(O)c1cc(O)c(O)c(O)c1 ; what pIC50 value has been reported?
4.67

Suppose we examine the compound CCCCCCCCOC(=O)c1cc(O)c(O)c(O)c1 [Octyl gallate] ; what pIC50 value has been reported?
4.77

Suppose we examine the compound O=C(O)/C=C/c1ccc(O)c(O)c1 ; what pIC50 value has been reported?
4.67

Suppose we examine the compound C[C@@H]1O[C@@H](OC[C@H]2O[C@@H](Oc3c(-c4ccc(O)c(O)c4)oc4cc(O)cc(O)c4c3=O)[C@H](O)[C@@H](O)[C@@H]2O)[C@H](O)[C@H](O)[C@H]1O ; what pIC50 value has been reported?
4.99

Suppose we examine the compound C[C@@H]1O[C@@H](Oc2c(-c3ccc(O)c(O)c3)oc3cc(O)cc(O)c3c2=O)[C@H](O)[C@H](O)[C@H]1O ; what pIC50 value has been reported?
4.89

Suppose we examine the compound CCCOC(=O)c1cc(O)c(O)c(O)c1 [Propyl Gallate] ; what pIC50 value has been reported?
4.88

Suppose we examine the compound COC(=O)c1cc(O)c(O)c(O)c1 [Methyl gallate] ; what pIC50 value has been reported?
5.29

Suppose we examine the compound COc1cc(-c2oc3cc(O)cc(O)c3c(=O)c2O)ccc1O ; what pIC50 value has been reported?
4.74

Suppose we examine the compound COc1cc(/C=C/C(=O)O)ccc1O ; what pIC50 value has been reported?
4.35

Suppose we examine the compound COc1cc(C(=O)O)cc(OC)c1O ; what pIC50 value has been reported?
4.49

Suppose we examine the compound O=c1cc(-c2ccc(O)c(O)c2)oc2cc(O[C@@H]3O[C@H](CO)[C@@H](O)[C@H](O)[C@H]3O)cc(O)c12 [Luteolin-7-glucoside] ; what pIC50 value has been reported?
4.97

Suppose we examine the compound O=c1c(O)c(-c2ccc(O)cc2O)oc2cc(O)cc(O)c12 ; what pIC50 value has been reported?
4.62

Suppose we examine the compound O=c1c(O)c(-c2ccc(O)c(O)c2)oc2cc(O)cc(O)c12 ; what pIC50 value has been reported?
4.97

Suppose we examine the compound O=c1cc(-c2ccc(O)c(O)c2)oc2cc(O)cc(O)c12 ; what pIC50 value has been reported?
4.92

* * *

Test system: HL cells
protocolText: Toxicity towards the host cells, Trypan blue staining, no infection
Format: cell-based, human
testConditions: 0.005 μM, pre-treated
Description: The determination was performed as in the previous tests but without any infection. The viability was determined with Trypan blue staining.
Answer each item with its documented Toxicity test HL-C (pre-treated).
The reply should be a number in %, with the unit left off.

Suppose we examine the compound COc1cc(O)c2c(=O)c(O)c(-c3ccc(O)c(O)c3)oc2c1 ; what Toxicity test HL-C (pre-treated) value has been reported?
6.6

Suppose we examine the compound CCCCCCCCOC(=O)c1cc(O)c(O)c(O)c1 [Octyl gallate] ; what Toxicity test HL-C (pre-treated) value has been reported?
7.0

Suppose we examine the compound O=c1c(O)c(-c2ccc(O)cc2O)oc2cc(O)cc(O)c12 ; what Toxicity test HL-C (pre-treated) value has been reported?
14.4

Suppose we examine the compound O=c1c(O)c(-c2ccc(O)c(O)c2)oc2cc(O)cc(O)c12 ; what Toxicity test HL-C (pre-treated) value has been reported?
7.9

* * *

Test system: HL cells
protocolText: Toxicity towards the host cells, Trypan blue staining, no infection
Format: cell-based, human
testConditions: 5 μM, pre-treated
Answer each item with its documented Toxicity test HL-C (pre-treated).
The reply should be a number in %, with the unit left off.

Suppose we examine the compound CCCCCCCCOC(=O)c1cc(O)c(O)c(O)c1 [Octyl gallate] ; what Toxicity test HL-C (pre-treated) value has been reported?
8.5

Suppose we examine the compound O=c1c(O)c(-c2ccc(O)c(O)c2)oc2cc(O)cc(O)c12 ; what Toxicity test HL-C (pre-treated) value has been reported?
8.1

Suppose we examine the compound COc1cc(O)c2c(=O)c(O)c(-c3ccc(O)c(O)c3)oc2c1 ; what Toxicity test HL-C (pre-treated) value has been reported?
8.0

Suppose we examine the compound O=c1c(O)c(-c2ccc(O)cc2O)oc2cc(O)cc(O)c12 ; what Toxicity test HL-C (pre-treated) value has been reported?
12.7

* * *

Tested on: HL cells
protocolText: Toxicity towards the host cells, Trypan blue staining, no infection
Assay type: cell-based, human
testConditions: 0.05 μM, pre-treated
endpoint: Toxicity test HL-C (pre-treated) (%)
The reply should be a number in %, with the unit left off.

Suppose we examine the molecule O=c1c(O)c(-c2ccc(O)c(O)c2)oc2cc(O)cc(O)c12 ; what Toxicity test HL-C (pre-treated) value has been reported?
7.2

Suppose we examine the molecule CCCCCCCCOC(=O)c1cc(O)c(O)c(O)c1 [Octyl gallate] ; what Toxicity test HL-C (pre-treated) value has been reported?
7.1

Suppose we examine the molecule COc1cc(O)c2c(=O)c(O)c(-c3ccc(O)c(O)c3)oc2c1 ; what Toxicity test HL-C (pre-treated) value has been reported?
7.6

Suppose we examine the molecule O=c1c(O)c(-c2ccc(O)cc2O)oc2cc(O)cc(O)c12 ; what Toxicity test HL-C (pre-treated) value has been reported?
8.1
